// provenance: ChEMBL document CHEMBL5241054

This document collects pIC50 values reported for UniProt:P11511.
Conceptually, pIC50 converts a concentration in mol/L into minus its log10.

Below are worked cases with known answers.
- compound: "C[C@]12CC[C@@H]3c4ccc(OC(=O)c5ccno5)cc4CC[C@H]3[C@@H]1CCC2=O"
  system-name: "UniProt:P11511"
  pIC50: 3.61
- compound: "CC(=O)O[C@@H]1CCC[C@@]2(CO)C1=CC[C@@H]1[C@@H]2CC[C@]2(C)C(=O)CC[C@@H]12"
  system-name: "UniProt:P11511"
  pIC50: 4.96
- compound: "C[C@]12CC[C@H]3[C@@H](CC(=O)C4=CCCC[C@@]43C=O)[C@@H]1CCC2=O"
  system-name: "UniProt:P11511"
  pIC50: 5.24

Next up:
// query Requested read-out: pIC50. Entry: C[C@]12C[C@@H](CCc3ccc(C(F)(F)F)cc3)C(=O)C=C1CC[C@@H]1[C@@H]2CC[C@]2(C)C(=O)CC[C@@H]12
// result 4.33

---

system-name: Aromatase (Homo sapiens)
pIC50: −log10 of the molar value.
# pIC50 binned as LOW: < 5; MEDIUM: ≥ 5 and < 7; HIGH: ≥ 7

- molecule: "C[C@]12CC[C@H]3[C@@H]([C@H](CCc4ccccc4)CC4=CC(=O)CC[C@@]43C)[C@@H]1CC[C@@H]2O"
  classification: "HIGH"

// query Which category fits this record: CCCCCCC[C@@H]1C[C@@H]2[C@H](CC[C@]3(C)C(=O)CC[C@@H]23)[C@@]2(C)C=CC(=O)C=C12
// result HIGH

// query Which category fits this record: C[C@]12C=CC(=O)C=C1[C@@H](CCc1ccccc1)C[C@@H]1[C@@H]2CC[C@]2(C)C(=O)CC[C@@H]12
// result MEDIUM

// query Which category fits this record: C[C@]12CCC(=O)C=C1C(CCCCc1ccccc1)=C[C@@H]1[C@@H]2CC[C@]2(C)C(=O)CC[C@@H]12
// result MEDIUM

// query Which category fits this record: CC[C@]12CCC(=O)C=C1C(=O)C[C@@H]1[C@@H]2CC[C@]2(C)C(=O)CC[C@@H]12
// result MEDIUM

// query Which category fits this record: C[C@]12CC[C@H]3[C@@H](CCC4=CC(=O)CC[C@@]43C)[C@@H]1C[C@@H](O)[C@@H]2O
// result LOW

---

system-name: Aromatase (Homo sapiens, UniProt P11511)
Sequence (P11511 whole entry): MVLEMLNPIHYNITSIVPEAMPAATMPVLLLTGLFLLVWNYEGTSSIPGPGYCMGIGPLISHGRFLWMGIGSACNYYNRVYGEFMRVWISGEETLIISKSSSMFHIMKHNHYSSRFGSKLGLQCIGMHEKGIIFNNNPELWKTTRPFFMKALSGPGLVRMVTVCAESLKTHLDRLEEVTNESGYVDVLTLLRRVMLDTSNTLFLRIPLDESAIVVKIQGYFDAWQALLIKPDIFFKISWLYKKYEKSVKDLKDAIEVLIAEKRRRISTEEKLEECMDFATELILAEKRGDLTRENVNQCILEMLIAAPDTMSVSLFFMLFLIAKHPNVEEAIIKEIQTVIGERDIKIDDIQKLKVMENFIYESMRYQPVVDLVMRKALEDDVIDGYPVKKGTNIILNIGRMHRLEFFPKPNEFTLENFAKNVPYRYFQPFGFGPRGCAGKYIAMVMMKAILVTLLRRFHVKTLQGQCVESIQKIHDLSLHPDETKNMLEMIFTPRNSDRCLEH
measured-parameter: IC50
Please don't drop the unit; write it after the number.

Below are worked cases with known answers.
- compound: "C[C@]12CCC(=O)C=C1[C@@H](O)C[C@@H]1[C@@H]2CC[C@]2(C)C(=O)CC[C@@H]12"
  IC50: "15 µM"
- compound: "CCCC1=C[C@@]2(C)C(=CC1=O)CC[C@@H]1[C@@H]2CC[C@]2(C)C(=O)CC[C@@H]12"
  IC50: "1.75 µM"
- compound: "C[C@]12C=CC(=O)C=C1C(c1ccccc1)=C[C@@H]1[C@@H]2CC[C@]2(C)C(=O)CC[C@@H]12"
  IC50: "0.54 µM"

Next up:
// query I'm curious: which IC50 was measured for C[C@]12CC[C@@H]3c4ccc(O)cc4[C@H](CCCc4ccccc4)C[C@H]3[C@@H]1CCC2=O tested on Aromatase (Homo sapiens, UniProt P11511)?
// result 30 µM

---

system-name: Aromatase (Homo sapiens)
Sequence (P11511 whole entry): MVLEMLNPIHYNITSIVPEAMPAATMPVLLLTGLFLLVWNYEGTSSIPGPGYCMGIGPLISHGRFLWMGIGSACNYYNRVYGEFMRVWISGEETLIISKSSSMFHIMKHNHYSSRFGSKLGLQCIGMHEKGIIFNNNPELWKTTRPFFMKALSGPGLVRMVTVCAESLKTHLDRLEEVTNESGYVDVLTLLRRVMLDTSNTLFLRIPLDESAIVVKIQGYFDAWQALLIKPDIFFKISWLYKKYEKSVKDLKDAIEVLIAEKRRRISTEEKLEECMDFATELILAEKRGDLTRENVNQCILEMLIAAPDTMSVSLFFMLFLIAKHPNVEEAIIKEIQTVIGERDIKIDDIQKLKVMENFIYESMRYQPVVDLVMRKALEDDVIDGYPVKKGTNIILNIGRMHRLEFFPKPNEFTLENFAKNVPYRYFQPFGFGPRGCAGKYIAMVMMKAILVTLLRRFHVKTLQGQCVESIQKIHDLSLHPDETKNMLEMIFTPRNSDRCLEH
Cut-off 1 µM on IC50: below means satisfied, at or above means not satisfied.

- compound: "C[C@]12CCC(=O)C=C1C(CCc1ccccc1)=C[C@@H]1[C@@H]2CC[C@]2(C)C(=O)CC[C@@H]12"
  classification: "satisfied"
- compound: "C[C@]12CC[C@@H]3c4cc(C=O)c(O)cc4CC[C@H]3[C@@H]1CC[C@@H]2O"
  classification: "not satisfied"
- compound: "CCC1C[C@H]2[C@@H]3CC[C@H](O)[C@@]3(C)CC[C@@H]2[C@@]2(C)C=CC(=O)C=C12 (stereo partly drawn)"
  classification: "satisfied"

// query Would you kindly verify if IC50 of CC(=O)OC1[C@@H]2[C@H](CC[C@]3(C)C(=O)CC[C@@H]23)[C@@]2(C)CCC(=O)C=C2[C@@H]1N=[N+]=[N-] (stereo partly drawn) is strictly less than 1 µM?
// result satisfied

// query Would you kindly verify if IC50 of C[C@]12CC[C@H]3[C@@H](CC=C4C(=O)CCC[C@@]43CO)[C@@H]1CCC2=O is strictly less than 1 µM?
// result not satisfied

// query Would you kindly verify if IC50 of C[C@]12CC[C@@H]3c4ccc(O)c(NC(=O)c5ccncc5)c4CC[C@H]3[C@@H]1CCC2=O is strictly less than 1 µM?
// result not satisfied

// query Would you kindly verify if IC50 of CCCC[C@H]1C[C@@H]2[C@H](CC[C@]3(C)C(=O)CC[C@@H]23)c2ccc(O)cc21 is strictly less than 1 µM?
// result not satisfied

---

pIC50: recorded values
system-name: Aromatase (Homo sapiens)
Sequence (P11511 whole entry): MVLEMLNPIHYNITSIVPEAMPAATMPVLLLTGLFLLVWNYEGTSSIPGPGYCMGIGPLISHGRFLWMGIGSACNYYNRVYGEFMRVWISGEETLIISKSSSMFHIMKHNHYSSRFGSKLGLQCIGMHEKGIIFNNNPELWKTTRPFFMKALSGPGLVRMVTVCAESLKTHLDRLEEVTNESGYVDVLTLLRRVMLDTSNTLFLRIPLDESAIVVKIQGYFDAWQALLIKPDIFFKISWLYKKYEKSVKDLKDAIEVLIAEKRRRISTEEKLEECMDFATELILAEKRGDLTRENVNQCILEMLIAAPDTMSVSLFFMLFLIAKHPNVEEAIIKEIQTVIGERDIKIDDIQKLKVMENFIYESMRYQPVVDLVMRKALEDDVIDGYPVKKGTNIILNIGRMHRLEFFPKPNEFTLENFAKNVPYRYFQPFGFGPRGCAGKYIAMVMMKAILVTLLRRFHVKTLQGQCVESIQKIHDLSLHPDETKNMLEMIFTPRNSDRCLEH
Conceptually, pIC50 converts a concentration in mol/L into minus its log10.

- compound: "CC(=O)N1N=C2[C@H](C[C@H]3[C@@H]4CC[C@H]5CC(=O)CC[C@]5(C)[C@H]4CC[C@]23C)[C@H]1c1ccccc1"
  pIC50: 5.31
- compound: "C[C@]12CCC(=O)C[C@@H]1CC[C@@H]1[C@@H]2CC[C@]2(C)C3=NN[C@H](c4ccccc4)[C@H]3C[C@@H]12"
  pIC50: 5.28
- compound: "C[C@]12C=CC(=O)C=C1CC[C@@H]1[C@@H]2CC[C@]2(C)C(=O)C(Br)C[C@@H]12 (stereo not given in full)"
  pIC50: 4.88
- compound: "C[C@]12CCC(=O)C=C1[C@H](Oc1ccccc1)C[C@@H]1[C@@H]2CC[C@]2(C)C(=O)CC[C@@H]12"
  pIC50: 4.64
- compound: "CC1(C)C[C@@]2(CO)C(=CC1=O)CC[C@@H]1[C@@H]2CC[C@]2(C)C(=O)CC[C@@H]12"
  pIC50: 5.29
- compound: "C/C=C1\\CC[C@@]2(C)[C@@H](CC[C@@H]3[C@@H]2CC[C@]2(C)C4=NN(C)[C@H](c5ccc(OC)cc5)[C@H]4C[C@@H]32)C1"
  pIC50: 5.47

// query Requested read-out: pIC50. Entry: C[C@]12C=CC(=O)C=C1C[C@@H](CCc1ccc([N+](=O)[O-])cc1)[C@@H]1[C@@H]2CC[C@]2(C)C(=O)CC[C@@H]12
// result 7.83

// query Requested read-out: pIC50. Entry: C[C@]12CCCC[C@@H]1CC[C@@H]1[C@@H]2CC[C@]2(C)C(=O)CC[C@@H]12
// result 5.64

// query Requested read-out: pIC50. Entry: CCC(=O)O[C@H]1C[C@@H]2[C@H](CC[C@]3(C)C(=O)CC[C@@H]23)[C@@]2(C)CCC(=O)C=C12
// result 6.68

// query Requested read-out: pIC50. Entry: C[C@]12CC[C@H](O)C[C@@H]1CC[C@@H]1[C@@H]2CC[C@]2(C)C3=NN[C@H](c4ccccc4)[C@H]3C[C@@H]12
// result 5.16
